activity change, negative = cytotoxicity: recorded values
assay: mouse fibroblast viability loss – cell-based, cherry-pick samples, set 2, cytotoxicity control for T. cruzi growth inhibitor project, dose response (AID 651817); conditions: NIH/3T3 viability, ATP luminescence (CellTiter-Glo), 90 h; at 19.5 µM (top of the series)

MOL_SMILES | activity change, negative = cytotoxicity [%]
C[C@H](CO)N1C[C@H](C)[C@@H](CN(C)Cc2ccc3c(c2)OCO3)Oc2c(NC(=O)c3ccncc3)cccc2C1=O | -18.8
COc1ccc(CN(C)C[C@H]2Oc3c(NC(=O)c4ccncc4)cccc3C(=O)N([C@@H](C)CO)C[C@@H]2C)cc1 | 5.41
C[C@@H]1CN([C@@H](C)CO)C(=O)c2cccc(NC(=O)c3ccncc3)c2O[C@H]1CN(C)Cc1ccc2c(c1)OCO2 | -26.4
Cc1ccc(S(=O)(=O)N(C)C[C@H]2Oc3ccc(NS(=O)(=O)c4ccc(Cl)cc4)cc3CC(=O)N([C@H](C)CO)C[C@@H]2C)cc1 | 3.37
Cc1ccc(S(=O)(=O)Nc2ccc3c(c2)CC(=O)N([C@H](C)CO)C[C@H](C)[C@@H](CN(C)S(=O)(=O)c2ccc(Cl)cc2)O3)cc1 | -14.6
C[C@@H]1CN([C@@H](C)CO)C(=O)c2cccc(NC(=O)c3ccncc3)c2O[C@H]1CN(C)CC1CCCCC1 | -8.6
C[C@@H]1CN([C@H](C)CO)C(=O)Cc2cc(NS(=O)(=O)c3ccc(F)cc3)ccc2O[C@@H]1CN(C)Cc1ccc(Cl)c(Cl)c1 | -49.8
C[C@@H]1CN([C@@H](C)CO)C(=O)c2cccc(NC(=O)c3nc4ccccc4s3)c2O[C@@H]1CN(C)Cc1ccc2c(c1)OCO2 | 0.748
C[C@H](CO)N1C[C@H](C)[C@H](CN(C)Cc2ccc(-c3ccccc3)cc2)Oc2c(NC(=O)c3ccncc3)cccc2C1=O | 4.37
C[C@@H]1CN([C@H](C)CO)C(=O)c2cccc(NC(=O)c3nc4ccccc4s3)c2O[C@@H]1CN(C)Cc1ccc2c(c1)OCO2 | -22.1
C[C@@H]1CN([C@H](C)CO)C(=O)c2cccc(NC(=O)c3ccncc3)c2O[C@@H]1CN(C)CC1CCCCC1 | 29
COc1ccc(S(=O)(=O)Nc2ccc3c(c2)CC(=O)N([C@H](C)CO)C[C@@H](C)[C@H](CN(C)Cc2ccc4c(c2)OCO4)O3)cc1 | 4.02
C[C@@H]1CN([C@@H](C)CO)C(=O)c2cccc(NC(=O)NC3CCCCC3)c2O[C@H]1CN(C)S(=O)(=O)c1ccc(F)cc1 | 12.1
Cc1ccc(S(=O)(=O)Nc2ccc3c(c2)CC(=O)N([C@H](C)CO)C[C@@H](C)[C@H](CN(C)S(=O)(=O)c2ccc(Cl)cc2)O3)cc1 | -23.3
Cc1ccc(S(=O)(=O)Nc2ccc3c(c2)CC(=O)N([C@H](C)CO)C[C@H](C)[C@H](CN(C)Cc2ccccc2)O3)cc1 | -17.1
C[C@H]1CN([C@@H](C)CO)C(=O)c2cccc(NC(=O)c3nc4ccccc4s3)c2O[C@H]1CN(C)Cc1ccc2c(c1)OCO2 | -36.3
C[C@@H]1CN([C@@H](C)CO)C(=O)c2cccc(NC(=O)c3ccncc3)c2O[C@@H]1CN(C)CC1CCCCC1 | 15.4
C[C@H](CO)N1C[C@H](C)[C@@H](CN(C)S(=O)(=O)c2ccc(Cl)cc2)Oc2ccc(NS(=O)(=O)c3ccccc3)cc2CC1=O | -20.3
Cc1ccc(S(=O)(=O)N(C)C[C@H]2Oc3ccc(NS(=O)(=O)c4ccccc4)cc3CC(=O)N([C@@H](C)CO)C[C@@H]2C)cc1 | 26
C[C@H](CO)N1C[C@H](C)[C@@H](CN(C)Cc2ccc(Oc3ccccc3)cc2)Oc2c(NC(=O)c3ccncc3)cccc2C1=O | 16.4
Cc1ccc(S(=O)(=O)Nc2ccc3c(c2)CC(=O)N([C@@H](C)CO)C[C@H](C)[C@H](CN(C)S(=O)(=O)c2ccc(Cl)cc2)O3)cc1 | -3.56
C[C@@H]1CN([C@H](C)CO)C(=O)c2cccc(NC(=O)c3nc4ccccc4s3)c2O[C@H]1CN(C)S(=O)(=O)c1ccc(Cl)cc1 | -10.1
C[C@H]1CN([C@@H](C)CO)C(=O)c2cccc(NC(=O)c3ccncc3)c2O[C@@H]1CN(C)Cc1ccc2c(c1)OCO2 | -3.23
C[C@H]1CN([C@@H](C)CO)C(=O)c2cccc(NC(=O)c3ccncc3)c2O[C@H]1CN(C)CC1CCCCC1 | 36.4
Cc1noc(C)c1NC(=O)Nc1cccc2c1O[C@@H](CN(C)S(C)(=O)=O)[C@@H](C)CN([C@H](C)CO)C2=O | 13.3
C[C@H]1CN([C@@H](C)CO)C(=O)c2cccc(NC(=O)c3ccncc3)c2O[C@@H]1CN(C)Cc1ccc(-c2ccccc2)cc1 | -14.8
C[C@@H]1CN([C@H](C)CO)C(=O)c2cccc(NC(=O)c3ccncc3)c2O[C@@H]1CN(C)Cc1ccc2c(c1)OCO2 | -25.6
C[C@@H]1CN([C@H](C)CO)C(=O)Cc2cc(NS(=O)(=O)c3ccccc3)ccc2O[C@@H]1CN(C)S(=O)(=O)c1ccc(Cl)cc1 | -10.7

* * *

activity change, negative = cytotoxicity: recorded values
assay: mouse fibroblast viability loss – cell-based, cherry-pick samples, set 2, cytotoxicity control for T. cruzi growth inhibitor project, dose response (AID 651817); settings: NIH/3T3 viability, ATP luminescence (CellTiter-Glo), 90 h; at 19.5 µM (top of the series)
REPORTED_METRIC: activity change, negative = cytotoxicity (%)

MOL_SMILES | QUANTITATIVE_RESULT
C[C@H](CO)N1C[C@H](C)[C@@H](CN(C)Cc2ccc(-c3ccccc3)cc2)Oc2c(NC(=O)c3ccncc3)cccc2C1=O | -29.7
COc1ccc(CN(C)C[C@@H]2Oc3c(NC(=O)Nc4ccc(C(F)(F)F)cc4)cccc3C(=O)N([C@@H](C)CO)C[C@H]2C)cc1 | -16.2
C[C@H]1CN([C@@H](C)CO)C(=O)c2cccc(NC(=O)NC3CCCCC3)c2O[C@@H]1CN(C)S(=O)(=O)c1ccc(F)cc1 | 3.7
C[C@@H]1CN([C@H](C)CO)C(=O)c2cccc(NC(=O)c3nc4ccccc4s3)c2O[C@@H]1CN(C)S(=O)(=O)c1ccccc1 | 35.6
C[C@H]1CN([C@@H](C)CO)C(=O)Cc2cc(NS(=O)(=O)c3ccccc3)ccc2O[C@H]1CN(C)S(=O)(=O)c1ccc(Cl)cc1 | -30.3
C[C@H]1CN([C@@H](C)CO)C(=O)c2cccc(NC(=O)c3ccncc3)c2O[C@H]1CN(C)Cc1ccc(C(F)(F)F)cc1 | -30.7
C[C@@H]1CN([C@@H](C)CO)C(=O)c2cccc(NC(=O)c3ccncc3)c2O[C@@H]1CN(C)Cc1ccc(-c2ccccc2)cc1 | 19.3
C[C@@H]1CN([C@@H](C)CO)C(=O)c2cccc(NC(=O)c3nc4ccccc4s3)c2O[C@@H]1CN(C)S(=O)(=O)c1ccc(Cl)cc1 | -8.38
COc1ccc(CN(C)C[C@@H]2Oc3c(NC(=O)c4ccncc4)cccc3C(=O)N([C@H](C)CO)C[C@H]2C)cc1 | -20.7
C[C@@H]1CN([C@H](C)CO)C(=O)c2cccc(NC(=O)c3ccncc3)c2O[C@@H]1CN(C)Cc1ccc(Cl)c(Cl)c1 | -9.65
Cc1ccc(S(=O)(=O)N(C)C[C@@H]2Oc3ccc(NS(=O)(=O)c4ccccc4)cc3CC(=O)N([C@@H](C)CO)C[C@@H]2C)cc1 | 9.31
C[C@H](CO)N1C[C@H](C)[C@@H](CN(C)S(=O)(=O)c2ccc(Cl)cc2)Oc2c(NC(=O)c3nc4ccccc4s3)cccc2C1=O | 14.7
Cc1noc(C)c1NC(=O)Nc1cccc2c1O[C@H](CN(C)S(C)(=O)=O)[C@@H](C)CN([C@H](C)CO)C2=O | 2.45
Cc1noc(C)c1NC(=O)Nc1cccc2c1O[C@@H](CN(C)S(C)(=O)=O)[C@@H](C)CN([C@@H](C)CO)C2=O | -35
Cc1noc(C)c1NC(=O)Nc1cccc2c1O[C@@H](CN(C)S(C)(=O)=O)[C@H](C)CN([C@H](C)CO)C2=O | -6.79
C[C@@H]1CN([C@H](C)CO)C(=O)Cc2cc(NS(=O)(=O)c3ccc(Cl)cc3)ccc2O[C@H]1CN(C)Cc1ccc2c(c1)OCO2 | -22
C[C@@H]1CN([C@H](C)CO)C(=O)c2cccc(NC(=O)c3ccncc3)c2O[C@@H]1CN(C)Cc1ccc(Oc2ccccc2)cc1 | 14.7
C[C@@H]1CN([C@@H](C)CO)C(=O)c2cccc(NC(=O)c3ccncc3)c2O[C@@H]1CN(C)Cc1ccc(C(F)(F)F)cc1 | -16.7
C[C@@H]1CN([C@H](C)CO)C(=O)Cc2cc(NS(=O)(=O)c3ccc(F)cc3)ccc2O[C@H]1CN(C)Cc1ccc(Cl)c(Cl)c1 | -17.9
C[C@@H]1CN([C@@H](C)CO)C(=O)c2cccc(NC(=O)c3nc4ccccc4s3)c2O[C@H]1CN(C)S(=O)(=O)c1ccccc1 | -9.49
Cc1ccc(S(=O)(=O)Nc2ccc3c(c2)CC(=O)N([C@@H](C)CO)C[C@H](C)[C@H](CN(C)Cc2ccccc2)O3)cc1 | -4.35
C[C@@H]1CN([C@@H](C)CO)C(=O)Cc2cc(NS(=O)(=O)c3ccccc3)ccc2O[C@@H]1CN(C)S(=O)(=O)c1ccc(Cl)cc1 | -12.4
C[C@H](CO)N1C[C@H](C)[C@@H](CN(C)S(=O)(=O)c2ccccc2)Oc2c(NC(=O)c3nc4ccccc4s3)cccc2C1=O | -18.8
C[C@@H]1CN([C@@H](C)CO)C(=O)c2cccc(NC(=O)Nc3ccc(C(F)(F)F)cc3)c2O[C@H]1CN(C)Cc1ccc(Cl)c(Cl)c1 | -34.5
C[C@@H]1CN([C@H](C)CO)C(=O)c2cccc(NC(=O)c3ccncc3)c2O[C@H]1CN(C)Cc1ccc(Oc2ccccc2)cc1 | -6.58
C[C@H]1CN([C@@H](C)CO)C(=O)Cc2cc(NS(=O)(=O)c3ccccc3)ccc2O[C@@H]1CN(C)S(=O)(=O)c1ccc(Cl)cc1 | -7.84
C[C@@H]1CN([C@@H](C)CO)C(=O)c2cccc(NC(=O)c3ccncc3)c2O[C@H]1CN(C)CC1CC1 | -16.5
C[C@@H]1CN([C@@H](C)CO)C(=O)Cc2cc(NS(=O)(=O)c3ccc(Cl)cc3)ccc2O[C@@H]1CN(C)S(=O)(=O)c1ccc(Cl)cc1 | -14.1
